Source: patent US20050227220A1

# Study System: T1, ERβ ligand binding domain (amino acids 257-530) (UniProt Q92731 257-530)
# T1 construct: range 257-530; not shown: His-tag
# T1 sequence (Q92731 257-530 limits assumed): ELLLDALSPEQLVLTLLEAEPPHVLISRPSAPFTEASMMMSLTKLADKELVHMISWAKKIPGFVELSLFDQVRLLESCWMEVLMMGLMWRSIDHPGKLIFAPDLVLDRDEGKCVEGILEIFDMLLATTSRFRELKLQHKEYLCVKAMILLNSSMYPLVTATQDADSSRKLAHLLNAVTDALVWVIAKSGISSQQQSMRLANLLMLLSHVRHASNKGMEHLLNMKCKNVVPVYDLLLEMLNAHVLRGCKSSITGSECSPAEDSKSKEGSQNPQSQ
# Test Summary: fluorescence polarization, 10 nM fluorescein peptide, LBD titrated, no ligand
Primed or numbered codes have the meaning given here. No end group written: not given here. fluorescein = fluorescein: fluorescein label attached at the N-terminus of the peptide; fluorescein″ = fluorescein label attached to the peptide N-terminus
Measured Kd, listed per entry for reference.

| Binder | Unit Of Measurement | Kd |
| --- | --- | --- |
| {fluorescein″}-TNMGLEAIIFKALMGKYDQWEE [Fluoroscein-SMRT ID-C peptide] | µM | 30 |
| fluorescein-GHSFADPASNLGLEDIIRKALMGSF (also called NCOR peptide; NCoR 2251-2275) [Fluoroscein-NCOR ID-C peptide (NCoR amino acids 2251-2275)] | µM | 37 |
